# target: native human MET on living cells (human, UniProt P08581 25-1390)
# Sequence (P08581 25-1390): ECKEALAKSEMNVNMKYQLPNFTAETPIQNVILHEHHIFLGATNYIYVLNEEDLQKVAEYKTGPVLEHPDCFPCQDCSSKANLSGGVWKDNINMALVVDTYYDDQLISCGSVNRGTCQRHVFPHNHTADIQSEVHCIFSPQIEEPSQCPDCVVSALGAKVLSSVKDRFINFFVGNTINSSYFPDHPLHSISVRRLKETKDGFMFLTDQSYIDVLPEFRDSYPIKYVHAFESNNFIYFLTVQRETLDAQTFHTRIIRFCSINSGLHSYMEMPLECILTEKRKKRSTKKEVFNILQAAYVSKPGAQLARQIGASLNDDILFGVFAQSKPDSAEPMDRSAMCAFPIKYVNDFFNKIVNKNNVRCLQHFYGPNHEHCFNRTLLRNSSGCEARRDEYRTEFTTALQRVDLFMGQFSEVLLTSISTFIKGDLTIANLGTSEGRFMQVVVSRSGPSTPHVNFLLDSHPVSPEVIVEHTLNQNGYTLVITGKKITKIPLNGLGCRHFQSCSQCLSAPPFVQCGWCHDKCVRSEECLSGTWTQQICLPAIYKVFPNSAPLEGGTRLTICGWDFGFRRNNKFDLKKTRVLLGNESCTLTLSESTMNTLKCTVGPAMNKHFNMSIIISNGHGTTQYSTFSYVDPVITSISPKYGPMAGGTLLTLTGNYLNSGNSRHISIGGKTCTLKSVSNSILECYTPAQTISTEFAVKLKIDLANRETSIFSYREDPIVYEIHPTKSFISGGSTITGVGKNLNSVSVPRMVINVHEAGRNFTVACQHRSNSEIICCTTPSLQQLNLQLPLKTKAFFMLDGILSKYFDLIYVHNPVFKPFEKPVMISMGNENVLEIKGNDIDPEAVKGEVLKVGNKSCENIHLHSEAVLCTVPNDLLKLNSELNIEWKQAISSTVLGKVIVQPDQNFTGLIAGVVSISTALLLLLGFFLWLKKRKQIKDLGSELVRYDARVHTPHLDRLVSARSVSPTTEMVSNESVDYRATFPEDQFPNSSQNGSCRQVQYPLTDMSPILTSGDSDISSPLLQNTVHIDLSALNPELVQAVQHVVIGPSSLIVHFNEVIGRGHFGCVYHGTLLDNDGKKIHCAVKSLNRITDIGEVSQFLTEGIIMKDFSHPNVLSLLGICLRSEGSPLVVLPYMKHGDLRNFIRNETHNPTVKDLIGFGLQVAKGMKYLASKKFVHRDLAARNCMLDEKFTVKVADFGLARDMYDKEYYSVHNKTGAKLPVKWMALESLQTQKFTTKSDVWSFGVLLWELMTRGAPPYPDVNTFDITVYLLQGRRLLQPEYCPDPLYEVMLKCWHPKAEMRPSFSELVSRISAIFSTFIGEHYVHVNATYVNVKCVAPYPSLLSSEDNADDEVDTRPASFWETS
# procedure_details: cell-based or functional assay
reported_metric: protection from staurosporine-induced apoptosis EC50, MCF10A cells (nM)
Your answer is read as nM, so omit the unit and give the number.

Example entries begin here.
71G3 chimeric llama-human IgG1 mAb (antibody, V domains shown, human IgG1 CH1-CH2-CH3 and human CL lambda; also called 71G3 Human IgG1/lambda) VH: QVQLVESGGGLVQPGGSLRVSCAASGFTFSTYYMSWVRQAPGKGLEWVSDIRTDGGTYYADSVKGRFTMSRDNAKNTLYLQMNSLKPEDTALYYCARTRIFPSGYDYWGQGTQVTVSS VL: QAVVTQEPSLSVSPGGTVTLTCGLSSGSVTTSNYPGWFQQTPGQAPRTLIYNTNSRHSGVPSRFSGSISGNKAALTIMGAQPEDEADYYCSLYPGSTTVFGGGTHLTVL
5.04
71D4 chimeric llama-human IgG1 mAb (antibody, V domains shown, human IgG1 CH1-CH2-CH3 and human CL lambda) VH: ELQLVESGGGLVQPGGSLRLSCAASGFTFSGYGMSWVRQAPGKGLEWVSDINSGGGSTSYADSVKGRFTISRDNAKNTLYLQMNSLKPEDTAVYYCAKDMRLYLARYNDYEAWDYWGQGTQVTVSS VL: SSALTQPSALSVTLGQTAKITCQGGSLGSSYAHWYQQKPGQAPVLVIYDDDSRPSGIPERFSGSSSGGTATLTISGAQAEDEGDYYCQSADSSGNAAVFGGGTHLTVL
30.2
71G2 chimeric llama-human IgG1 mAb (antibody, V domains shown, human IgG1 CH1-CH2-CH3 and human CL lambda; also called 71G2 Human IgG1/lambda) VH: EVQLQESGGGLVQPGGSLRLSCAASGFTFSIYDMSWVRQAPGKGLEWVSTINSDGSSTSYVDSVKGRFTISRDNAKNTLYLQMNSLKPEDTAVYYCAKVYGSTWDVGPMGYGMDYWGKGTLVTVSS VL: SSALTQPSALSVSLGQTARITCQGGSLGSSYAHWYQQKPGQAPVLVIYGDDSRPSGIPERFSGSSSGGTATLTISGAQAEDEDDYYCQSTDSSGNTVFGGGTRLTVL
1.06

Per the record, 71D6 chimeric llama-human IgG1 mAb (antibody, V domains shown, human IgG1 CH1-CH2-CH3 and human CL lambda; also called 71D6 Human IgG1/lambda) VH: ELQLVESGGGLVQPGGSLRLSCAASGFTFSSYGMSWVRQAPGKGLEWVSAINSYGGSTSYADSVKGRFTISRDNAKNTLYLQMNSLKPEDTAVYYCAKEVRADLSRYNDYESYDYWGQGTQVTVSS VL: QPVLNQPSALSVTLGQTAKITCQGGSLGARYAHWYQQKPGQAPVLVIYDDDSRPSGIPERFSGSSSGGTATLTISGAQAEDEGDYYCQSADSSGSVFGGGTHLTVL has protection from staurosporine-induced apoptosis EC50, MCF10A cells of 1.48

Per the record, 76G7 chimeric llama-human IgG1 mAb (antibody, V domains shown, human IgG1 CH1-CH2-CH3 and human CL lambda) VH: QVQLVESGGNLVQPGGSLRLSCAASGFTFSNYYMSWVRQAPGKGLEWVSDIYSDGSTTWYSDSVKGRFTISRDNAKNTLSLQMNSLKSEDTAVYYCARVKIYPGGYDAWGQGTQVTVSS VL: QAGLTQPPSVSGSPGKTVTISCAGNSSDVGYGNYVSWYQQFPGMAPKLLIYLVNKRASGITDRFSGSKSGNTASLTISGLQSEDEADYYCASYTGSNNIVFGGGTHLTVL has protection from staurosporine-induced apoptosis EC50, MCF10A cells of 25.4

Per the record, 71C3 chimeric llama-human IgG1 mAb (antibody, V domains shown, human IgG1 CH1-CH2-CH3 and human CL lambda) VH: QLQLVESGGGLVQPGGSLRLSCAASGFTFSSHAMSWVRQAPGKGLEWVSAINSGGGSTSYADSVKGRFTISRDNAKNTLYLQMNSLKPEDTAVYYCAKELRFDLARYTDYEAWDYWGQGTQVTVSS VL: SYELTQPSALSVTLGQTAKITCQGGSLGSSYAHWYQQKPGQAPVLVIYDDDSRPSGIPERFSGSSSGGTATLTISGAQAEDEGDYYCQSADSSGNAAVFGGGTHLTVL has protection from staurosporine-induced apoptosis EC50, MCF10A cells of 31.9
